- assayed-target: MCL-1/Bim interaction (recombinant human MCL-1 protein, residues 171-327; biotinylated human Bim peptide, residues 51-76) (Homo sapiens (Human), UniProt Q07820)
- Sequence (Q07820 171-327): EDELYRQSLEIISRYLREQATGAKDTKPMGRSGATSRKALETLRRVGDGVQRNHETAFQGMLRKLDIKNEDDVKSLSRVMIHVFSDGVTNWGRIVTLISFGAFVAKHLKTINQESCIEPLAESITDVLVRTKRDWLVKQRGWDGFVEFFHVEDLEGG
- measurement-notes: MCL-1/Bim Binding AlphaLISA Assay
- test-parameters: 0.0625 nM 6xHis-Mcl-1 (171-327), 0.0625 nM biotinylated-Bim peptide
Provide the recorded log10 of IC50 for the entries that follow.
Answers are given as log10 of IC50 in nM.

Recorded results for 6 compounds are shown here.
CO[C@H]1/C=C/C[C@H](C)C[S@@](=O)(NC(=O)N[C@@H]2C[C@H]2F)=NC(=O)c2ccc3c(c2)N(C[C@@H]2CC[C@H]21)C[C@@]1(CCCc2cc(Cl)ccc21)CO3 -1.19
CO[C@H]1/C=C/C[C@H](C)C[S@@](=O)(NC(=O)N[C@H]2C[C@@](C)(CO)C2)=NC(=O)c2ccc3c(c2)N(C[C@@H]2CC[C@H]21)C[C@@]1(CCCc2cc(Cl)ccc21)CO3 -1.27
C[C@@H]1[C@@H](C)C/C=C/[C@H](O)[C@@H]2CC[C@H]2CN2C[C@@]3(CCCc4cc(Cl)ccc43)COc3ccc(cc32)C(=O)N=[S@]1(=O)NC(=O)c1cc2n(c1)C[C@H](CO)OC2 -1.06
CO[C@H]1/C=C/C[C@H](C)C[S@@](=O)(NC(=O)NC2CCOCC2)=NC(=O)c2ccc3c(c2)N(C[C@@H]2CC[C@H]21)C[C@@]1(CCCc2cc(Cl)ccc21)CO3 -0.87
CO[C@H]1/C=C/C[C@H](C)C[S@@](=O)(NC(=O)c2cnn(C(C)C)c2)=NC(=O)c2ccc3c(c2)N(C[C@@H]2CC[C@H]21)C[C@@]1(CCCc2cc(Cl)ccc21)CO3 -1.15
CO[C@H]1/C=C/C[C@H](C)C[S@@](=O)(NC(=O)N2CC(OC)(c3nccn3C)C2)=NC(=O)c2ccc3c(c2)N(C[C@@H]2CC[C@H]21)C[C@@]1(CCCc2cc(Cl)ccc21)CO3 -1.17

Form: compound = CO[C@H]1/C=C/CCC[S@@](=O)(NC(=O)CCCn2cccn2)=NC(=O)c2ccc3c(c2)N(C[C@@H]2CC[C@H]21)C[C@@]1(CCCc2cc(Cl)ccc21)CO3 ; log10 of IC50 = -0.22
